Observed SARS-2 VU-VTR @ 20 μM (A549-hACE2) (logs), system SARS-2.
measured_endpoint: SARS-2 VU-VTR @ 20 μM (A549-hACE2) (logs)

smiles_structure	value_reported
O=C(Nc1cc(C#Cc2ccccn2)cc(OC(F)(F)F)c1)c1ccc(N2CCCCC2=O)cc1	2.59
O=C(Nc1ccc(N2CCCCS2(=O)=O)cc1)c1cccc(C#Cc2ccccn2)c1	2.47
O=C(Nc1cccc(C#Cc2ccccn2)c1)c1ccc(N2CCNC2=O)cc1	1.84
CC(C)n1nccc1-c1ccc(NC(=O)c2cccc(C#Cc3ccccn3)c2)cc1	3.3
COc1cc(C#Cc2ccccn2)cc(NC(=O)c2ccc(N3CCCCC3=O)cc2)c1	3.08
O=C(Nc1cccc(C#Cc2ccccn2)c1)c1ccc(N2CCCCC2=O)cc1	2.4
CC(C)N1CCN(c2ccc(C(=O)Nc3cccc(C#Cc4ccccn4)c3)cc2)C1=O	2.12
O=C1CCCc2cc(C(=O)Nc3cccc(C#Cc4ccccn4)c3)ccc2N1	2.55

---

test system: USA_WA1/2020 SARS CoV-2; assay: microbe, parasite or virus in culture; format: cell-based; conditions: Severe acute respiratory syndrome coronavirus 2, Vero C1008, 72 h, read-out: SARS-2 EC50 (μM) VeroE6
# 1 (yes) = EC50 below 4 µM (exclusive); 0 (no) = EC50 at/above 4 µM

smiles_structure	assigned_class
O=C(Nc1cccc(C#Cc2ccccn2)c1)c1ccc(C(=O)NC2CCCC2)cc1	1 (yes)
Cc1cc(C#Cc2ccccn2)nc(NC(=O)c2ccc3c(c2)CCC(=O)N3)c1	0 (no)
CC(=O)Nc1ccc(C(=O)Nc2cccc(C#Cc3ccccn3)c2)nn1	0 (no)
O=C(Nc1ccc(N2CCCCS2(=O)=O)cc1)c1cccc(C#Cc2ccccn2)c1	1 (yes)
Nc1cc(C#Cc2ccccn2)cc(NC(=O)c2ccc(N3CCCCC3=O)cc2)c1	0 (no)
Cc1nc2ccc(C(=O)Nc3cccc(C#Cc4ccccn4)c3)cc2o1	1 (yes)
CCC(=O)Nc1ccc(C(=O)Nc2cccc(C#Cc3ccccn3)c2)cc1	1 (yes)
O=C1CCc2cc(C(=O)Nc3cccc(C#Cc4ccccn4)c3)ccc2N1	0 (no)
CC(C)N1CCN(c2ccc(C(=O)Nc3cccc(C#Cc4ccccn4)c3)cc2)C1=O	1 (yes)
O=C(Nc1ccc(C(O)(C(F)(F)F)C(F)(F)F)cc1)c1cccc(C#Cc2ccccn2)c1	0 (no)
O=C(Nc1cccc(C#Cc2ccccn2)c1)c1ccc(C(=O)NC2CCC2)cc1	1 (yes)
COc1cc(C#Cc2ccccn2)cc(C(=O)Nc2ccc(N3CCCCC3=O)cc2)c1	1 (yes)
O=C(Nc1ccc(C(=O)OCC2CC2)cc1)c1cccc(C#Cc2ccccn2)c1	1 (yes)
O=C1Nc2ccc(C(=O)Nc3cccc(C#Cc4ccccn4)c3)cc2CO1	0 (no)
COc1cc(C#Cc2ccccn2)cc(NC(=O)c2ccc(N3CCCCC3=O)cc2)c1	1 (yes)
COc1cc(C#Cc2ccccn2)cc(NC(=O)c2ccc(N3CCCCS3(=O)=O)cc2)c1	1 (yes)
CC(=O)Nc1ccc(NC(=O)c2cccc(C#Cc3ccccn3)c2)cn1	0 (no)
O=C(Nc1cccc(C#Cc2ccccn2)c1)c1ccc(N2CCN(C3CCC3)CC2=O)cc1	0 (no)
CCCC(=O)Nc1ccc(C(=O)Nc2cccc(C#Cc3ccccn3)c2)cc1	1 (yes)
COc1cc(C#Cc2ccccn2)cc(C(=O)Nc2ccc(N3CCCCS3(=O)=O)cc2)c1	1 (yes)
O=C(Nc1cccc(C#Cc2ccccn2)c1)c1ccc(NC(=O)C(F)(F)F)cc1	0 (no)
CN(C)c1ccc(C(=O)Nc2cccc(C#Cc3ccccn3)c2)cc1	0 (no)
CC1(C)CN(c2ccc(NC(=O)c3cccc(C#Cc4ccccn4)c3)cc2)C1=O	1 (yes)
O=C(Nc1cc(C#Cc2ccccn2)cc(OCC2CC2)c1)c1ccc(N2CCCCC2=O)cc1	1 (yes)
O=C(Nc1cccc(C#Cc2ccccn2)c1)c1ccc(N2CCCNC2=O)cc1	0 (no)
CCN(C(C)=O)c1ccc(NC(=O)c2cccc(C#Cc3ccccn3)c2)cc1	1 (yes)
CC(C)n1nccc1-c1ccc(NC(=O)c2cccc(C#Cc3ccccn3)c2)cc1	1 (yes)
O=C(Nc1cccc(C#Cc2ccccn2)c1)c1ccc(N2CCCOC2=O)cc1	0 (no)
O=C(Nc1cccc(C#Cc2ccccn2)c1)c1ccc(-c2ccn[nH]2)cc1	1 (yes)
O=C(Nc1cccc(C#Cc2ccccn2)c1)c1ccc(N2CCN(CC3CCC3)CC2=O)cc1	0 (no)
NC(=O)Nc1ccc(C(=O)Nc2cccc(C#Cc3ccccn3)c2)cc1	0 (no)
CC(=O)Nc1ccc(C(=O)Nc2cccc(C#Cc3ccccn3)c2)cc1F	1 (yes)
O=C(Nc1cccc(C#Cc2ccccn2)c1)c1ccc(N2CCCC3(CCC3)C2=O)cc1	1 (yes)
